Target: IDH1 R132H (Homo sapiens, UniProt O75874, R132H)
Sequence (O75874 whole entry R132H): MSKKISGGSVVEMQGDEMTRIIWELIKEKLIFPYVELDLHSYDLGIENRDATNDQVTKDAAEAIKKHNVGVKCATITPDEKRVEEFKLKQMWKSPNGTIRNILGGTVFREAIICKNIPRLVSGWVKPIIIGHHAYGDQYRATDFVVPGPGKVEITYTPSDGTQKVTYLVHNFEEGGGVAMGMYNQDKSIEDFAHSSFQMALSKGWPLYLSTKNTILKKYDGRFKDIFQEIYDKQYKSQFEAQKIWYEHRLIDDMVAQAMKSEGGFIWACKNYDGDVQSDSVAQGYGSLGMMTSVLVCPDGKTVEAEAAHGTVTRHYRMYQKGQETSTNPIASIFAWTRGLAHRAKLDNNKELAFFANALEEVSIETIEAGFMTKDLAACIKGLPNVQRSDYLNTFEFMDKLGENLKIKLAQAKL
Assay: IDH1 R132H enzymatic assay (NADPH depletion coupled to diaphorase/resazurin)
Format: biochemical
Details: IDH1 R132H enzymatic inhibition, IC50 class
Protocol: Assays were conducted in a 1536-well black solid-bottom plate with a final assay volume of 9 μL. Specifically, for IDH1 R132H, 3 μL of enzyme (4 mM β-ME, 0.0005 mg/mL IDH1 R132H, 150 mM NaCl, 20 mM Tris pH 7.5, 10 mM MgCl2, 0.05% BSA) were added to the plate, followed by the addition of 23 nL of test compound in DMSO. […]
experimental_endpoint: IC50

Some compounds with known IC50 results, for comparison:
CCc1cccc(CC)c1-n1c(C)c(C(=O)N2CC(N)C2)cc(-c2nc(-c3ccc(Cl)cc3)cs2)c1=O    1000 to 5000 nM
CCc1cccc(CC)c1-n1c(C=C(C)C)c(C(=O)N2CCNC(C(N)=O)C2)cc(-c2ccn(-c3ccc(Cl)cc3)n2)c1=O (stereo not drawn)    < 300 nM
CCc1cccc(CC)c1-n1c(CC(C)C)c(C(=O)N2CCNCC2)cc(-c2nc(-c3ccc(C(=O)NC4CCCC4)cc3)c(C)s2)c1=O    5000 to 20000 nM
CC1(C)CC(=O)c2cc(-c3nc(-c4ccc(Cl)cc4)cs3)c(=O)n(-c3ccccc3CN)c2C1    5000 to 20000 nM
CCc1cccc(CC)c1-n1c(CC(C)C)c(C(=O)N2CCNC(=O)C2)cc(-c2nc(-c3ccc(Cl)cc3)cs2)c1=O    < 300 nM

Any idea what its IC50 is? The compound is CCc1cccc(CC)c1-n1c(CC(C)C)c(C(=O)N2CCN[C@H](C(=O)O)C2)cc(-c2nc(-c3ccc(Cl)cc3)cs2)c1=O 300 to 1000 nM
